Tested on: SF-539 CNS
test: NCI-60 one-dose screen, 48 h (100 = growth as untreated, 0 = no growth, -100 = all killed)
condition_summary: 10 µM unless noted
The panel holds about 83,000 compounds, 20% with a hit somewhere; the sample as a whole holds those more often.
Measured growth by item
Enter your answer as a number in %; do not include the unit.

sample_smiles: CCOC(=O)c1c(C)nc2c(c1N)/C(=C/c1ccc(OC)cc1)C(=O)N2Cc1ccccc1
measured_on: SF-539 CNS
output_unit: %
growth: 87.5
//
sample_smiles: c1ccc2c(c1)CCCc1nnc3nc4ccccc4n3c1-2
measured_on: SF-539 CNS
output_unit: %
growth: 69.5
//
sample_smiles: CCNc1nc(O)c(/C=C2\C=Nc3ncccc32)s1
measured_on: SF-539 CNS
output_unit: %
growth: -64.2
//
sample_smiles: Cc1cccc(Oc2ccc(Nc3ncnc4ccc(NC(=O)CN5CCN(C)CC5)cc34)cc2Cl)c1
measured_on: SF-539 CNS
output_unit: %
growth: -77.1
//
sample_smiles: CN(C)c1ccc(/C=C(\C#N)c2cc3ccccc3[nH]2)cc1
measured_on: SF-539 CNS
output_unit: %
growth: 6.06

Consider now this further molecule.
The molecule CCN(CC)CCCN1C(=O)c2c(c(C)c3c(oc4ccc(OC)cc43)c2C)C1=O , when measured on SF-539 CNS, yielded growth of 91.8

Data origin: PubChem BioAssay (NCI)
